# System: Staphylococcus aureus
# Assay Comment: Antibacterial activity against multidrug-resistant Staphylococcus aureus isolate 2895 by broth microdilution assay
# Assay type: functional
Documented log10(MIC) across a set of compounds
Measured Parameter: log10(MIC) (log10 of the value in µg/mL)

[
  {
    "Compound": "CO/N=C(\\C(=O)N[C@@H]1C(=O)N2C(C(=O)O)=C(COC(N)=O)CS[C@H]12)c1ccco1 [CEFUROXIME]",
    "Measured Parameter": "log10(MIC)",
    "Result Number": 1.81
  },
  {
    "Compound": "C[C@@H](O)[C@H]1C(=O)N2C(C(=O)O)=C(S[C@@H]3CN[C@H](C(=O)N(C)C)C3)[C@H](C)[C@H]12 [MEROPENEM]",
    "Measured Parameter": "log10(MIC)",
    "Result Number": 0.00
  },
  {
    "Compound": "COc1cccc(OC)c1C(=O)N[C@@H]1C(=O)N2[C@@H]1SC(C)(C)[C@@H]2C(=O)O [METHICILLIN]",
    "Measured Parameter": "log10(MIC)",
    "Result Number": 1.81
  },
  {
    "Compound": "CC1(C)S[C@@H]2[C@H](NC(=O)[C@H](N)c3ccc(O)cc3)C(=O)N2[C@H]1C(=O)O [AMOXICILLIN]",
    "Measured Parameter": "log10(MIC)",
    "Result Number": 2.41
  },
  {
    "Compound": "Cc1onc(-c2ccccc2Cl)c1C(=O)N[C@@H]1C(=O)N2[C@@H]1SC(C)(C)[C@@H]2C(=O)O [CLOXACILLIN]",
    "Measured Parameter": "log10(MIC)",
    "Result Number": 0.90
  },
  {
    "Compound": "CCCCCCCCCNc1ccc(F)c(C(N)=O)c1F",
    "Measured Parameter": "log10(MIC)",
    "Result Number": 1.20
  }
]

* * *

# Tested on: Staphylococcus aureus
# Assay Comment: Antibacterial activity against multidrug-resistant Staphylococcus aureus isolate 254 by broth microdilution assay
# Type: functional
The label is fulfilled for MIC below 30 µg/mL and not fulfilled for MIC equal to or exceeding 30 µg/mL.

[
  {
    "Compound": "Cc1onc(-c2ccccc2Cl)c1C(=O)N[C@@H]1C(=O)N2[C@@H]1SC(C)(C)[C@@H]2C(=O)O [CLOXACILLIN]",
    "Class Assignment": "not fulfilled"
  },
  {
    "Compound": "CCCCCCCCCNc1ccc(F)c(C(N)=O)c1F",
    "Class Assignment": "fulfilled"
  },
  {
    "Compound": "C[C@@H](O)[C@H]1C(=O)N2C(C(=O)O)=C(S[C@@H]3CN[C@H](C(=O)N(C)C)C3)[C@H](C)[C@H]12 [MEROPENEM]",
    "Class Assignment": "fulfilled"
  },
  {
    "Compound": "CO/N=C(\\C(=O)N[C@@H]1C(=O)N2C(C(=O)O)=C(COC(N)=O)CS[C@H]12)c1ccco1 [CEFUROXIME]",
    "Class Assignment": "not fulfilled"
  },
  {
    "Compound": "COc1cccc(OC)c1C(=O)N[C@@H]1C(=O)N2[C@@H]1SC(C)(C)[C@@H]2C(=O)O [METHICILLIN]",
    "Class Assignment": "not fulfilled"
  },
  {
    "Compound": "CC1(C)S[C@@H]2[C@H](NC(=O)[C@H](N)c3ccc(O)cc3)C(=O)N2[C@H]1C(=O)O [AMOXICILLIN]",
    "Class Assignment": "not fulfilled"
  }
]

Source listed as ChEMBL document CHEMBL4330069.
